molecular target: Adenosine receptor A1 (Homo sapiens); assay: Displacement of [3H]N6-R-phenylisopropyladenosine from human adenosine A1 receptor expressed in CHO cell membranes at 10 uM incubated for 60 mins by liquid scintillation counting analysis
Consider the following compounds; for each one, report its inhibition.
Answers are plain numbers, in %.

CNC(=O)[C@@]12C[C@@H]1[C@@H](n1cnc3c(/C=C(\O)c4ccccc4)nc(Cl)nc31)[C@H](O)[C@@H]2O    30

Below are some compounds; for each one, tell me its inhibition.
1. CNC(=O)[C@@]12C[C@@H]1[C@@H](n1cnc3cnc(C#Cc4ccc(F)c(F)c4)nc31)[C@H](O)[C@@H]2O
2. CNC(=O)[C@@]12C[C@@H]1[C@@H](n1cnc3cnc(/C=C(\O)c4cnccn4)nc31)[C@H](O)[C@@H]2O

[17, 14]

Below are some compounds; for each one, tell me its inhibition.
1. CNC(=O)[C@@]12C[C@@H]1[C@@H](n1cnc3c(/C=C(\O)c4ccc(C(C)(C)C)cc4)nc(C#Cc4ccc(C(C)(C)C)cc4)nc31)[C@H](O)[C@@H]2O
2. CNC(=O)[C@@]12C[C@@H]1[C@@H](n1cnc3c(C)nc(C#Cc4ccccc4)nc31)[C@H](O)[C@@H]2O

[24, 15]

====

Protein target, amino acids: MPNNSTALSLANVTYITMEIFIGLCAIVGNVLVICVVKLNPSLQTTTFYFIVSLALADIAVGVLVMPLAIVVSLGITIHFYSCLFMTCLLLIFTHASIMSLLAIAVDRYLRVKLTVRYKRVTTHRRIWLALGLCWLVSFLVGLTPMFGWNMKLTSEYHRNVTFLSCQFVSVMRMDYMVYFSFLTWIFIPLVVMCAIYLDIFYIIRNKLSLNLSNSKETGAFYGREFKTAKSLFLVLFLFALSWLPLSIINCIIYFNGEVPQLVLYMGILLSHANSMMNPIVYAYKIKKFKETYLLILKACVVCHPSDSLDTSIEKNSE
Consider the following molecules; for each one, report its pKi.
Give bare numbers, as −log10 of the molar value.

See these solved cases before continuing.
CNC(=O)[C@@]12C[C@@H]1[C@@H](n1cnc3cnc(C#Cc4ccc(Cl)s4)nc31)[C@H](O)[C@@H]2O    7.22
CNC(=O)[C@@]12C[C@@H]1[C@@H](n1cnc3cnc(NC)nc31)[C@H](O)[C@@H]2O    6.22
CNC(=O)[C@@]12C[C@@H]1[C@@H](n1cnc3c(C)nc(C#Cc4ccc(Cl)s4)nc31)[C@H](O)[C@@H]2O    7.37
CNC(=O)[C@@]12C[C@@H]1[C@@H](n1cnc3cnc(/C=C(\O)c4cnccn4)nc31)[C@H](O)[C@@H]2O    5.83

Consider now this further molecule.
Consider the molecule CNC(=O)[C@@]12C[C@@H]1[C@@H](n1cnc3c(C)nc(C#Cc4ccc(F)c(F)c4)nc31)[C@H](O)[C@@H]2O and give its recorded pKi.
7.01

====

Sequence of the target: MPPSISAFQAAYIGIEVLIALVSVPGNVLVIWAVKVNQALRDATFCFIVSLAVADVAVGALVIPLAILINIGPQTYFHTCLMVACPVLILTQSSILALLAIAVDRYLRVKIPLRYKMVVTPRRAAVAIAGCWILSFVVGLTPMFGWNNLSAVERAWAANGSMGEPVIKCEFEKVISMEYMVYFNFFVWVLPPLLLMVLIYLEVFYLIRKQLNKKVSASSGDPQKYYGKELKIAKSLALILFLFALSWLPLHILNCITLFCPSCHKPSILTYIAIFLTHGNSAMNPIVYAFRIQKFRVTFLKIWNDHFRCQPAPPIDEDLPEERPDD
quantity measured: Ki (µM)
Answers are plain numbers, in µM.

Consider the compound CNC(=O)[C@@]12C[C@@H]1[C@@H](n1cnc3c(C)nc(C#Cc4ccc(F)c(F)c4)nc31)[C@H](O)[C@@H]2O and give its recorded Ki.
5.43

====

molecular target: Adenosine receptor A3 (Homo sapiens, UniProt P0DMS8); assay: Agonist activity at recombinant human adenosine A3 receptor expressed in CHO cells assessed as inhibition of forskolin-stimulated cAMP accumulation preincubated for 30 mins followed by forsolkin addition measured after 15 mins by immunoassay
Consider the following molecules; for each one, report its EC50.
One number for each entry, in nM.

CNC(=O)[C@@]12C[C@@H]1[C@@H](n1cnc3cnc(C#Cc4ccc(Cl)s4)nc31)[C@H](O)[C@@H]2O    26.9

Consider now this further molecule.
Consider the molecule CNC(=O)[C@@]12C[C@@H]1[C@@H](n1cnc3c(C)nc(C#Cc4ccc(Cl)s4)nc31)[C@H](O)[C@@H]2O and give its recorded EC50.
12.5

====

molecular target: UniProt:P29274; test: Displacement of [3H]2-[p-(2-carboxyethyl)phenyl-ethylamino]-5'-N-ethylcarboxamido-adenosine from human adenosine A2A receptor expressed in HEK293 cell membranes at 10 uM incubated for 60 mins by liquid scintillation counting analysis
Sequence (P29274 whole entry): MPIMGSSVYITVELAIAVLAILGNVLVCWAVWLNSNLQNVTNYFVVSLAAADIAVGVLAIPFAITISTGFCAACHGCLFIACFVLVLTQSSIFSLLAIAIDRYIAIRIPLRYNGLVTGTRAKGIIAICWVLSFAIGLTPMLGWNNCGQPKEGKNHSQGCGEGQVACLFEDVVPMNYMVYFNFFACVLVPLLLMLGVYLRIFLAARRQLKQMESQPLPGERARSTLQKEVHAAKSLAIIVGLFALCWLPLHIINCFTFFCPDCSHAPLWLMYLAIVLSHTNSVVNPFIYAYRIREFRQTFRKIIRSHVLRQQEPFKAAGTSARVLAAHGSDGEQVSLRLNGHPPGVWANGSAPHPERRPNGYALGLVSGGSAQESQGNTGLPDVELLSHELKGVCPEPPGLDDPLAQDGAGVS
quantity measured: inhibition (%)
Numbers only, in %.

CNC(=O)[C@@]12C[C@@H]1[C@@H](n1cnc3cnc(C#Cc4ccc(Cl)s4)nc31)[C@H](O)[C@@H]2O    18

Consider now this further compound.
Consider the compound CNC(=O)[C@@]12C[C@@H]1[C@@H](n1cnc3c(/C=C(\O)c4ccccc4)nc(Cl)nc31)[C@H](O)[C@@H]2O and give its recorded inhibition.
24
